Tested on: mice
MEASUREMENT DESCRIPTION: Photobeam activity open field system (physical activity)
Assay type: in vivo
REPORTED CONDITIONS: Oatp1a/1b^(−/−) mice, chronic letrozole 0.1 mg/kg/day for 15 days, 12 hours
VALUE TYPE: Dist. (total distance traveled) (m)

[[record]]
molecule = "N#Cc1ccc(C(c2ccc(C#N)cc2)n2cncn2)cc1 [Letrozole]"
measured_target = "mice"
unit_text = "m"
meas_value = 316


###

MEASUREMENT DESCRIPTION: In vivo pharmacokinetic studies in mice (plasma and liver, LC/MS-MS)
REPORTED CONDITIONS: female, FVB, mouse, plasma, po, 10 mg/kg, AUC0–24h, wild-type female mice, letrozole 10 mg/kg oral single dose, mean ± SEM
VALUE TYPE: AUC(0-t) (ng·h/mL)

[[record]]
line_notation = "N#Cc1ccc(C(c2ccc(C#N)cc2)n2cncn2)cc1"
meas_value = 88700


###

System: mice
MEASUREMENT DESCRIPTION: Photobeam activity open field system (physical activity)
Type: in vivo
REPORTED CONDITIONS: wild-type mice, chronic letrozole 0.1 mg/kg/day for 15 days, 12 hours
VALUE TYPE: Dist. (total distance traveled) (m)

[[record]]
line_notation = "N#Cc1ccc(C(c2ccc(C#N)cc2)n2cncn2)cc1"
value_type = "Dist. (total distance traveled)"
unit_text = "m"
meas_value = 383


###

MEASUREMENT DESCRIPTION: In vivo pharmacokinetic studies in mice (plasma and liver, LC/MS-MS)
REPORTED CONDITIONS: female, FVB, mouse, plasma, po, 10 mg/kg, AUC0–24h, Cyp3a^(−/−) female mice, letrozole 10 mg/kg oral single dose, mean ± SEM
VALUE TYPE: AUC(0-t) (µg·h/mL)

[[record]]
line_notation = "N#Cc1ccc(C(c2ccc(C#N)cc2)n2cncn2)cc1"
meas_value = 141


###

MEASUREMENT DESCRIPTION: In vivo pharmacokinetic studies in mice (plasma and liver, LC/MS-MS)
REPORTED CONDITIONS: female, FVB, mouse, plasma, po, 10 mg/kg, Cmax, wild-type female mice, letrozole 10 mg/kg oral single dose, Table 1 study, mean ± SEM
VALUE TYPE: Cmax (ng/mL)

[[record]]
line_notation = "N#Cc1ccc(C(c2ccc(C#N)cc2)n2cncn2)cc1"
meas_value = 5800


###

MEASUREMENT DESCRIPTION: In vivo pharmacokinetic studies in mice (plasma and liver, LC/MS-MS)
REPORTED CONDITIONS: female, FVB, mouse, plasma, po, 20 mg/kg, Cmax, Oatp1a/1b^(−/−) female mice, exemestane 20 mg/kg oral, mean with SEM
VALUE TYPE: Cmax (ng/mL)

[[record]]
line_notation = "C=C1C[C@@H]2[C@H](CC[C@]3(C)C(=O)CC[C@@H]23)[C@@]2(C)C=CC(=O)C=C12"
value_type = "Cmax"
meas_value = 159


###

Test system: mice
MEASUREMENT DESCRIPTION: Photobeam activity open field system (physical activity)
Type: in vivo
REPORTED CONDITIONS: OATP1B1^(tg) mice, single oral letrozole 0.5 mg/kg, 12 hours
VALUE TYPE: Dist. (total distance traveled) (m)

[[record]]
line_notation = "N#Cc1ccc(C(c2ccc(C#N)cc2)n2cncn2)cc1"
meas_value = 377


###

MEASUREMENT DESCRIPTION: In vivo pharmacokinetic studies in mice (plasma and liver, LC/MS-MS)
REPORTED CONDITIONS: female, FVB, mouse, plasma, po, 20 mg/kg, AUC0–6h, OATP1B3^(tg) female mice, exemestane 20 mg/kg oral, mean with SEM
VALUE TYPE: AUC(0-t) (ng·h/mL)

[[record]]
line_notation = "C=C1C[C@@H]2[C@H](CC[C@]3(C)C(=O)CC[C@@H]23)[C@@]2(C)C=CC(=O)C=C12"
value_type = "AUC(0-t)"
meas_value = 294


###

MEASUREMENT DESCRIPTION: In vivo pharmacokinetic studies in mice (plasma and liver, LC/MS-MS)
REPORTED CONDITIONS: female, FVB, mouse, plasma, po, 10 mg/kg, AUC0–6h, wild-type female mice, letrozole 10 mg/kg oral, mean with SEM
VALUE TYPE: AUC(0-t) (ng·h/mL)

[[record]]
compound = "N#Cc1ccc(C(c2ccc(C#N)cc2)n2cncn2)cc1 [Letrozole]"
value_type = "AUC(0-t)"
meas_value = 25500


###

MEASUREMENT DESCRIPTION: In vivo pharmacokinetic studies in mice (plasma and liver, LC/MS-MS)
REPORTED CONDITIONS: female, FVB, mouse, plasma, po, 10 mg/kg, Cmax, OATP1B3^(tg) female mice, letrozole 10 mg/kg oral, mean with SEM
VALUE TYPE: Cmax (ng/mL)

[[record]]
molecule = "N#Cc1ccc(C(c2ccc(C#N)cc2)n2cncn2)cc1 [Letrozole]"
meas_value = 6670


###

Test system: mice
MEASUREMENT DESCRIPTION: Photobeam activity open field system (physical activity)
Format: in vivo
REPORTED CONDITIONS: OATP1B3^(tg) mice, chronic letrozole 0.1 mg/kg/day for 15 days, 12 hours
Experimental: An open-field photobeam activity system was used to monitor the motor activity of mice over a period of 12 hours after administration of letrozole ([27], [28]). Spontaneous physical/locomotor activity was assessed using an activity monitoring system consisting of a two-dimensional (X and Y axes) square frame that emits a grid of infrared beams (IR Actimeter and Actitrack software, Panlab, Harvard Apparatus). […]
VALUE TYPE: Dist. (total distance traveled) (m)

[[record]]
line_notation = "N#Cc1ccc(C(c2ccc(C#N)cc2)n2cncn2)cc1"
unit_text = "m"
meas_value = 373


###

MEASUREMENT DESCRIPTION: In vivo pharmacokinetic studies in mice (plasma and liver, LC/MS-MS)
REPORTED CONDITIONS: female, FVB, mouse, plasma, po, 20 mg/kg, AUC0–6h, Oatp1a/1b^(−/−) female mice, exemestane 20 mg/kg oral, mean with SEM
VALUE TYPE: AUC(0-t) (ng·h/mL)

[[record]]
line_notation = "C=C1C[C@@H]2[C@H](CC[C@]3(C)C(=O)CC[C@@H]23)[C@@]2(C)C=CC(=O)C=C12"
unit_text = "ng·h/mL"
meas_value = 292


###

MEASUREMENT DESCRIPTION: In vivo pharmacokinetic studies in mice (plasma and liver, LC/MS-MS)
REPORTED CONDITIONS: female, FVB, mouse, plasma, po, 10 mg/kg, AUC0–6h, OATP1B3^(tg) female mice, letrozole 10 mg/kg oral, mean with SEM
VALUE TYPE: AUC(0-t)

[[record]]
line_notation = "N#Cc1ccc(C(c2ccc(C#N)cc2)n2cncn2)cc1"
meas_value = "32400 ng·h/mL"


###

MEASUREMENT DESCRIPTION: In vivo pharmacokinetic studies in mice (plasma and liver, LC/MS-MS)
REPORTED CONDITIONS: female, FVB, mouse, plasma, po, 10 mg/kg, Cmax, OATP1B1^(tg) female mice, letrozole 10 mg/kg oral, mean with SEM
VALUE TYPE: Cmax (ng/mL)

[[record]]
line_notation = "N#Cc1ccc(C(c2ccc(C#N)cc2)n2cncn2)cc1"
unit_text = "ng/mL"
meas_value = 6550


###

Tested on: mice
MEASUREMENT DESCRIPTION: Photobeam activity open field system (physical activity)
Assay type: in vivo
REPORTED CONDITIONS: OATP1B1^(tg) mice, chronic letrozole 0.1 mg/kg/day for 15 days, 12 hours
VALUE TYPE: Dist. (total distance traveled)

[[record]]
compound = "N#Cc1ccc(C(c2ccc(C#N)cc2)n2cncn2)cc1 [Letrozole]"
value_type = "Dist. (total distance traveled)"
meas_value = "380 m"


###

MEASUREMENT DESCRIPTION: In vivo pharmacokinetic studies in mice (plasma and liver, LC/MS-MS)
REPORTED CONDITIONS: female, FVB, mouse, plasma, po, 10 mg/kg, Cmax, Cyp3a^(−/−) female mice, letrozole 10 mg/kg oral single dose, mean ± SEM
VALUE TYPE: Cmax (ng/mL)

[[record]]
compound = "N#Cc1ccc(C(c2ccc(C#N)cc2)n2cncn2)cc1 [Letrozole]"
meas_value = 6820

